molecular target: HMG-CoA-Reduktase (Rattus norvegicus, UniProt P51639); construct: solubilisierten Enzympräparationen aus Ratten-Lebermikrosomen; experiment: Inhibition of HMG-CoA reductase activity in solubilised enzyme preparations from rat liver microsomes; conditions: sodium salts of the dihydroxycarboxylic acids of formula II; substrate (S,R) 14C-HMG-CoA; mean of 3 parallel samples; read-out: IC₅₀
Sequence (P51639 whole entry): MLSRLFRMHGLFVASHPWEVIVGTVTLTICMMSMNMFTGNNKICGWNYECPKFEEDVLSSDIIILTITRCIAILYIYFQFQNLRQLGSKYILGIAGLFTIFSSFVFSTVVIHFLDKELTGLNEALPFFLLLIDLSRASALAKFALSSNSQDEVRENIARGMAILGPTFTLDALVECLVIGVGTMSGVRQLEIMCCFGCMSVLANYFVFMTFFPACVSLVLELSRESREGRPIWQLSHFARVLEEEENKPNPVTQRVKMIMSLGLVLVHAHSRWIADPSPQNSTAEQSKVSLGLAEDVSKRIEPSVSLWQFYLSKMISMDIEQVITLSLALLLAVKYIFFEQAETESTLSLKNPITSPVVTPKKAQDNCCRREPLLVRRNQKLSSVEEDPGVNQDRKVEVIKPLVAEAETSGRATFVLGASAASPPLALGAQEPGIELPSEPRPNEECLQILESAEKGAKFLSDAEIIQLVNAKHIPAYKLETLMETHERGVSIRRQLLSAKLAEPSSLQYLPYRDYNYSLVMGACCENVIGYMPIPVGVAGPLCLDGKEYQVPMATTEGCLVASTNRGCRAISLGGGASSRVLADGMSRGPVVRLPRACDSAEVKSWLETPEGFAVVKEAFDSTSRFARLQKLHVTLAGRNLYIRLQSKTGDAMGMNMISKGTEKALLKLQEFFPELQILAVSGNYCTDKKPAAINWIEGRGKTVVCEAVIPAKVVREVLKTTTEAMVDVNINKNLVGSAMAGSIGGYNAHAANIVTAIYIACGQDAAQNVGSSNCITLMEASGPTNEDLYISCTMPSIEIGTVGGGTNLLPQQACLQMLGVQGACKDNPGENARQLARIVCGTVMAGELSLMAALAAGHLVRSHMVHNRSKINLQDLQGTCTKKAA
One threshold, 5 nM, splits the recorded IC50 values: lower ones are Criterion met, equal or higher ones are Criterion not met.

>  <molecule smiles>
CC(C)c1cc(-c2ccc(F)cc2)cc(-c2ccc(F)cc2)c1SC[C@@H](O)C[C@@H](O)CC(=O)O

>  <class assignment>
Criterion not met

$$$$
>  <molecule smiles>
CC(C)c1cc(-c2ccccc2)cc(-c2ccc(F)cc2)c1OC[C@@H](O)C[C@@H](O)CC(=O)O

>  <class assignment>
Criterion not met

$$$$
>  <molecule smiles>
CC(C)c1cc(-c2ccc(F)cc2)cc(-c2ccc(F)cc2)c1OC[C@@H](O)C[C@@H](O)CC(=O)O

>  <class assignment>
Criterion not met

$$$$
>  <molecule smiles>
CC(C)c1cc(C(C)(C)C)cc(-c2ccc(F)cc2)c1OC[C@@H](O)C[C@@H](O)CC(=O)O

>  <class assignment>
Criterion not met

$$$$
>  <molecule smiles>
CC(C)c1cc(C2CCCCC2)cc(-c2ccc(F)cc2)c1OC[C@@H](O)C[C@@H](O)CC(=O)O

>  <class assignment>
Criterion not met

$$$$

Q: I wonder whether CC(C)c1cc(-c2ccc(F)cc2)c(OC[C@@H](O)C[C@@H](O)CC(=O)O)c(C(C)C)c1 has IC50 below 5 nM. Can you tell?
A: Criterion met

Q: Also check CC(C)c1cc(-c2ccc(F)cc2)c(SC[C@@H](O)C[C@@H](O)CC(=O)O)c(C(C)C)c1
A: Criterion met
